Reference source for all entries: patent US8940739B2

Tested on: MV-4-11 (human, Acute Myeloid Leukemia cell line) cells
Test: Cell growth inhibition assay, GI50 of MV-4-11
Format: cell-based
Conditions: Homo sapiens, MV4-11, 72 h, MV-4-11 cells

| compound | tgt | unit-of-measure | GI50 |
| --- | --- | --- | --- |
| C=CCN1CC(=O)N2C(CN(Cc3cccc4c(C(=O)Nc5ccc(O)cc5)cn(C)c34)C(=O)[C@@H]2Cc2ccc(O)cc2)N1C(=O)NCc1ccccc1 (some centres unmarked) | MV-4-11 (human, Acute Myeloid Leukemia cell line) cells | nM | 8 |
| C=CCN1CC(=O)N2[C@@H](Cc3ccc(O)cc3)C(=O)N(Cc3cccc4c(-c5ccc(NC(=O)c6ccc(N(C)C)cc6)cc5)cn(C)c34)C[C@@H]2N1C(=O)NCc1ccccc1 | MV-4-11 (human, Acute Myeloid Leukemia cell line) cells | nM | 5.4 |
| C=CCN1CC(=O)N2[C@@H](Cc3ccc(O)cc3)C(=O)N(Cc3cccc4c(C(=O)N5CCN(Cc6ccncc6)CC5)cn(C)c34)C[C@@H]2N1C(=O)NCc1ccccc1 | MV-4-11 (human, Acute Myeloid Leukemia cell line) cells | nM | 14.4 |
| C=CCN1CC(=O)N2[C@@H](Cc3ccc(O)cc3)C(=O)N(Cc3cccc4c(-c5cccc(C(=O)N6CCN(C)CC6)c5)cn(C)c34)C[C@@H]2N1C(=O)NCc1ccccc1 | MV-4-11 (human, Acute Myeloid Leukemia cell line) cells | nM | 1.3 |
| C=CCN1CC(=O)N2[C@@H](Cc3ccc(O)cc3)C(=O)N(Cc3cccc4c(-c5ccc(NC(=O)NC6CCCCC6)cc5)cn(C)c34)C[C@@H]2N1C(=O)NCc1ccccc1 | MV-4-11 (human, Acute Myeloid Leukemia cell line) cells | nM | 11.2 |

====

Assay: Blood drug concentration upon intravenous administration
Type: in vivo
Conditions: SD rat, 12.5 mg/kg, read-out: Half-life (t ½, hr) (converted)
recorded-metric: half-life (h)

| compound | recorded-metric | reported-value |
| --- | --- | --- |
| C=CCN1CC(=O)N2[C@@H](Cc3ccc(O)cc3)C(=O)N(Cc3cccc4c(C(=O)N5CCN(CC)CC5)cn(C)c34)C[C@@H]2N1C(=O)NCc1ccccc1 [Compound E-5] | half-life | 1.59 |

====

Tested on: MV-4-11 (human, Acute Myeloid Leukemia cell line) cells
Assay: Cell growth inhibition assay, GI50 of MV-4-11
Type: cell-based
Details: Homo sapiens, MV4-11, 72 h, MV-4-11 cells

| compound | GI50 (nM) |
| --- | --- |
| C=CCN1CC(=O)N2[C@@H](Cc3ccc(O)cc3)C(=O)N(Cc3cccc4c(-c5ccc(NC(=O)NC6CCN(C)CC6)nc5)cn(C)c34)C[C@@H]2N1C(=O)NCc1ccccc1 | 23 |
| C=CCN1CC(=O)N2[C@@H](Cc3ccc(O)cc3)C(=O)N(Cc3cccc4c(-c5ccc(C(=O)NN6CCN(C)CC6)cc5)cn(C)c34)C[C@@H]2N1C(=O)NCc1ccccc1 | 1.9 |
| C=CCN1CC(=O)N2[C@@H](Cc3ccc(O)cc3)C(=O)N(Cc3cccc4c(C(=O)N5CCN6CCN(CC7CCC7)CC6C5)cn(C)c34)C[C@@H]2N1C(=O)NCc1ccccc1 (stereo partly shown) | 6.9 |
| C=CCN1CC(=O)N2[C@@H](Cc3ccc(O)cc3)C(=O)N(Cc3cccc4c(-c5ccc(C(=O)OC)cc5)cn(C)c34)C[C@@H]2N1C(=O)NCc1ccccc1 | 15 |
| C=CCN1CC(=O)N2C(Cc3ccc(O)cc3)C(=O)N(Cc3cccc4c(C(=O)Nc5ccc(N6CCN(C(C)(C)C)CC6)nc5)cn(C)c34)CC2N1C(=O)NCc1ccccc1 (stereo not shown) | 1.3 |
| C=CCN1CC(=O)N2C(CN(Cc3cccc4c(C(=O)Nc5ccc(N6CCOCC6)nc5)cn(C)c34)C(=O)[C@@H]2Cc2ccc(O)cc2)N1C(=O)NCc1ccccc1 (stereo partly shown) | 1.3 |
| C=CCN1CC(=O)N2[C@@H](Cc3ccc(O)cc3)C(=O)N(Cc3cccc4c(-c5ccc(NC(=O)c6ccc(NC)cc6)cc5)cn(C)c34)C[C@@H]2N1C(=O)NCc1ccccc1 | 12.5 |
| C=CCN1CC(=O)N2C(CN(Cc3cccc4c(C(=O)Nc5ccc(N6CCN(CC)CC6)nc5)cn(C)c34)C(=O)[C@@H]2Cc2ccc(O)cc2)N1C(=O)NCc1ccccc1 (stereo partly shown) | 1.3 |
| C=CCN1CC(=O)N2C(CN(Cc3cccc4c(C(=O)Nc5ccc(OC)nc5)cn(C)c34)C(=O)[C@@H]2Cc2ccc(O)cc2)N1C(=O)NCc1ccccc1 (stereo partly shown) | 8.8 |
| C=CCN1CC(=O)N2[C@@H](Cc3ccc(O)cc3)C(=O)N(Cc3cccc4c(-c5ccc(NC(=O)C6CCN(C)CC6)cc5)cn(C)c34)C[C@@H]2N1C(=O)NCc1ccccc1 | 1.3 |
